species: Rattus norvegicus; assay: Open TG-GATES - Regimen: Daily Repeat; assay type: toxicity, organism-based, Sprague-Dawley; parameters: regimen Daily Repeat, gender Male, age 6 weeks; conditions: in vivo, po, 0 mg/kg, […], tissue Plasma, route gavage, dose level Control, time 28 day
parameter-measured: AST

// AST value for CN(C)[C@@H]1C(O)=C(C(N)=O)C(=O)[C@@]2(O)C(O)=C3C(=O)c4c(O)cccc4[C@@](C)(O)[C@H]3C[C@@H]12 : 58.2 IU/L

// AST value for O=C(O)Cc1ccccc1Nc1c(Cl)cccc1Cl : 57 IU/L

// AST value for CCOC(=O)[C@H](CCc1ccccc1)N[C@@H](C)C(=O)N1CCC[C@H]1C(=O)O : 54.2 IU/L

// AST value for Cc1cccc(Nc2ccccc2C(=O)O)c1C : 56.6 IU/L

// AST value for Clc1c(Cl)c(Cl)c(Cl)c(Cl)c1Cl : 54.2 IU/L

// AST value for CC(CN1c2ccccc2Sc2ccccc21)N(C)C (stereo not given) : 66.8 IU/L

// AST value for C#C[C@]1(O)CC[C@H]2[C@@H]3CCC4=Cc5oncc5C[C@]4(C)[C@H]3CC[C@@]21C : 63.8 IU/L

// AST value for CN1C(C(=O)Nc2ccccn2)=C(O)c2sc(Cl)cc2S1(=O)=O : 67.4 IU/L

// AST value for C1CCC(C(CC2CCCCN2)C2CCCCC2)CC1 (stereo not given) : 60 IU/L

// AST value for CC(=O)Nc1nnc(S(N)(=O)=O)s1 [ACETAZOLAMIDE] : 63.8 IU/L

----------
organism: Rattus norvegicus; assay: Open TG-GATES - Regimen: Single; format: toxicity, organism-based, Sprague-Dawley; set-up: regimen Single, gender Male, age 6 weeks; conditions: in vivo, po, 0 mg/kg, 3 h, tissue Plasma, route gavage, dose level Control
parameter-measured: TBIL (mg/dL)
Use mg/dL as the unit, but write only the number.

// TBIL value for C1CCC(C(CC2CCCCN2)C2CCCCC2)CC1 (stereo unspecified) : 0.014

// TBIL value for CN(C)[C@@H]1C(O)=C(C(N)=O)C(=O)[C@@]2(O)C(O)=C3C(=O)c4c(O)cccc4[C@@](C)(O)[C@H]3C[C@@H]12 : 0.4

// TBIL value for CN1C(C(=O)Nc2ccccn2)=C(O)c2sc(Cl)cc2S1(=O)=O : 0.1

// TBIL value for Clc1c(Cl)c(Cl)c(Cl)c(Cl)c1Cl : 0.1

// TBIL value for C#C[C@]1(O)CC[C@H]2[C@@H]3CCC4=Cc5oncc5C[C@]4(C)[C@H]3CC[C@@]21C : 0.01

// TBIL value for CCOC(=O)[C@H](CCc1ccccc1)N[C@@H](C)C(=O)N1CCC[C@H]1C(=O)O : 0.3

----------
organism: Rattus norvegicus; assay: Open TG-GATES - Regimen: Daily Repeat; format: toxicity, organism-based, Sprague-Dawley; set-up: regimen Daily Repeat, gender Male, age 6 weeks; conditions: in vivo, po, 0 mg/kg, 72 h, tissue Plasma, route gavage, dose level Control, time 3 day
Would you kindly list BUN for each of these molecules?
Use mg/dL as the unit, but write only the number.

// BUN value for CC(=O)Nc1nnc(S(N)(=O)=O)s1 [ACETAZOLAMIDE] : 17.8

// BUN value for CC(CN1c2ccccc2Sc2ccccc21)N(C)C (stereo not drawn) [PROMETHAZINE] : 17

// BUN value for C1CCC(C(CC2CCCCN2)C2CCCCC2)CC1 (stereo not drawn) [PERHEXILINE] : 16.4

// BUN value for Clc1c(Cl)c(Cl)c(Cl)c(Cl)c1Cl [PERCHLOROBENZENE] : 16.2

// BUN value for Cc1cccc(Nc2ccccc2C(=O)O)c1C [MEFENAMIC ACID] : 14.4

// BUN value for CN(C)[C@@H]1C(O)=C(C(N)=O)C(=O)[C@@]2(O)C(O)=C3C(=O)c4c(O)cccc4[C@@](C)(O)[C@H]3C[C@@H]12 [TETRACYCLINE] : 17.6

// BUN value for CN1C(C(=O)Nc2ccccn2)=C(O)c2sc(Cl)cc2S1(=O)=O [LORNOXICAM] : 14.4

// BUN value for CCOC(=O)[C@H](CCc1ccccc1)N[C@@H](C)C(=O)N1CCC[C@H]1C(=O)O : 19

----------
species on record: Rattus norvegicus; assay: Open TG-GATES - Regimen: Single; assay type: toxicity, organism-based, Sprague-Dawley; set-up: regimen Single, gender Male, age 6 weeks; conditions: in vivo, po, 0 mg/kg, 6 h, tissue Plasma, route gavage, dose level Control
parameter-measured: ALP (IU/L)
Use IU/L as the unit, but write only the number.

// ALP value for Clc1c(Cl)c(Cl)c(Cl)c(Cl)c1Cl : 958.2

// ALP value for C1CCC(C(CC2CCCCN2)C2CCCCC2)CC1 (stereo not given) : 1510

// ALP value for CC(CN1c2ccccc2Sc2ccccc21)N(C)C (stereo not given) : 1393.4

// ALP value for C#C[C@]1(O)CC[C@H]2[C@@H]3CCC4=Cc5oncc5C[C@]4(C)[C@H]3CC[C@@]21C : 1276.8

// ALP value for CC(=O)Nc1nnc(S(N)(=O)=O)s1 [ACETAZOLAMIDE] : 1340.2

// ALP value for CN(C)[C@@H]1C(O)=C(C(N)=O)C(=O)[C@@]2(O)C(O)=C3C(=O)c4c(O)cccc4[C@@](C)(O)[C@H]3C[C@@H]12 : 900.4

// ALP value for COc1cc([C@@H]2c3cc4c(cc3[C@@H](O[C@@H]3O[C@@H]5CO[C@@H](C)O[C@H]5[C@H](O)[C@H]3O)[C@H]3COC(=O)[C@H]23)OCO4)cc(OC)c1O [ETOPOSIDE] : 946.6

// ALP value for CN1C(C(=O)Nc2ccccn2)=C(O)c2sc(Cl)cc2S1(=O)=O : 765.4

// ALP value for Cc1cccc(Nc2ccccc2C(=O)O)c1C : 898.6

// ALP value for CCOC(=O)[C@H](CCc1ccccc1)N[C@@H](C)C(=O)N1CCC[C@H]1C(=O)O : 837.6

----------
Would you kindly list TC for each of these compounds?
organism: Rattus norvegicus; assay: Open TG-GATES - Regimen: Daily Repeat; type: toxicity, organism-based, Sprague-Dawley; set-up: regimen Daily Repeat, gender Male, age 6 weeks; conditions: in vivo, po, 0 mg/kg, 72 h, tissue Plasma, route gavage, dose level Control, time 3 day
Express your answer as a number followed by its unit.

// TC value for Clc1c(Cl)c(Cl)c(Cl)c(Cl)c1Cl : 73 mg/dL

// TC value for C#C[C@]1(O)CC[C@H]2[C@@H]3CCC4=Cc5oncc5C[C@]4(C)[C@H]3CC[C@@]21C : 72.2 mg/dL

// TC value for C1CCC(C(CC2CCCCN2)C2CCCCC2)CC1 (stereo not given) : 75.6 mg/dL

// TC value for CC(=O)Nc1nnc(S(N)(=O)=O)s1 [ACETAZOLAMIDE] : 71.2 mg/dL

// TC value for CC(CN1c2ccccc2Sc2ccccc21)N(C)C (stereo not given) : 86.8 mg/dL

// TC value for CN(C)[C@@H]1C(O)=C(C(N)=O)C(=O)[C@@]2(O)C(O)=C3C(=O)c4c(O)cccc4[C@@](C)(O)[C@H]3C[C@@H]12 : 83.2 mg/dL

// TC value for Cc1cccc(Nc2ccccc2C(=O)O)c1C : 70.6 mg/dL

// TC value for CN1C(C(=O)Nc2ccccn2)=C(O)c2sc(Cl)cc2S1(=O)=O : 74.2 mg/dL

// TC value for CCOC(=O)[C@H](CCc1ccccc1)N[C@@H](C)C(=O)N1CCC[C@H]1C(=O)O : 81 mg/dL

// TC value for O=C(O)Cc1ccccc1Nc1c(Cl)cccc1Cl : 74 mg/dL

----------
Would you kindly list GLC for each of these molecules?
species: Rattus norvegicus; assay: Open TG-GATES - Regimen: Single; type: toxicity, organism-based, Sprague-Dawley; set-up: regimen Single, gender Male, age 6 weeks; settings: in vivo, po, 0 mg/kg, 9 h, tissue Plasma, route gavage, dose level Control
Use mg/dL as the unit, but write only the number.

// GLC value for CN(C)[C@@H]1C(O)=C(C(N)=O)C(=O)[C@@]2(O)C(O)=C3C(=O)c4c(O)cccc4[C@@](C)(O)[C@H]3C[C@@H]12 [TETRACYCLINE] : 176.4

// GLC value for CC(CN1c2ccccc2Sc2ccccc21)N(C)C (stereo not given) [PROMETHAZINE] : 191.2

// GLC value for Clc1c(Cl)c(Cl)c(Cl)c(Cl)c1Cl [PERCHLOROBENZENE] : 198.8

// GLC value for C1CCC(C(CC2CCCCN2)C2CCCCC2)CC1 (stereo not given) [PERHEXILINE] : 193.8

// GLC value for COc1cc([C@@H]2c3cc4c(cc3[C@@H](O[C@@H]3O[C@@H]5CO[C@@H](C)O[C@H]5[C@H](O)[C@H]3O)[C@H]3COC(=O)[C@H]23)OCO4)cc(OC)c1O [ETOPOSIDE] : 190.6

// GLC value for C#C[C@]1(O)CC[C@H]2[C@@H]3CCC4=Cc5oncc5C[C@]4(C)[C@H]3CC[C@@]21C [DANAZOL] : 199.8

// GLC value for Cc1cccc(Nc2ccccc2C(=O)O)c1C [MEFENAMIC ACID] : 202.6

// GLC value for CC(=O)Nc1nnc(S(N)(=O)=O)s1 [ACETAZOLAMIDE] : 193

// GLC value for CCOC(=O)[C@H](CCc1ccccc1)N[C@@H](C)C(=O)N1CCC[C@H]1C(=O)O : 192.6

// GLC value for CN1C(C(=O)Nc2ccccn2)=C(O)c2sc(Cl)cc2S1(=O)=O [LORNOXICAM] : 197.8
